SUBJECT OF TEST: T1, SYNJ2BP, P57105
T1 sequence (P57105 8-110, limits assumed, looked up): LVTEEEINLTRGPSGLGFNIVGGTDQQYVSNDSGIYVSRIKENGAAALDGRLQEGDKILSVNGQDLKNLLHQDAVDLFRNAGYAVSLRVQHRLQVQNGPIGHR
TEST DESCRIPTION: holdup assay
Parameters: key: below the threshold = too weak to quantify, mostly under pKd 3.1 to 4
CONDITIONS: plain residues with an end cap or a label only (N-terminal biotin on a linker: ttds)
Measured pKd of individual entries

{"columns": ["BINDER", "pKd"],
 "data": [
  ["SGSRPSATVV [HPV73-E6, Q82005]", 3.71],
  ["SKPTRRETEV [HPV35-E6, P27228]", 5.69],
  ["NDPAWDETNL [ARHGEF7, Q14155]", 3.8],
  ["RLQRRRETQV [HPV18-E6, P06463]", 5.35],
  ["DKDPHSETAL [TMIGD1, Q6UXZ0]", 4.42],
  ["VDFPPKESSL [ACVR2A, P27037]", 4.53],
  ["PVRVCEETSL [OTULIN, Q96BN8]", 4.74],
  ["SSLQSLETSV [ATP2B4, P23634]", 5.66]
]}

The measurements presented in this section are drawn from paper PMC9482650.
